Could you please report measured LD50 for the items listed next?
assay: in vivo; conditions: mouse, ip, mice, intraperitoneal administration, read-out: Acute toxicity LD 50
Hi! Could you send only the number? It should be in mg/kg, unit omitted.

### Prompt Please give the documented LD50 of Cc1nnc(C=Cc2ccccc2OCC(O)CNC(C)CCc2ccc(O)cc2)s1 (centres unmarked)
### Response 41.7

### Prompt For the molecule COc1ccc(CCNCC(O)COc2ccccc2C=Cc2nnc(C)s2)cc1OC (centres unmarked) , report LD50.
### Response 81.3

###

test: in vivo; conditions: mouse, footnote (5) formula is a drawing, […], read-out: Therapeutic range
Hi there, I'd appreciate the recorded selectivity ratio for every entry that follows.
# output: bare number, no unit

### Prompt // Input: Cc1nnc(C=Cc2ccccc2OCC(O)CNC(C)CCc2ccc(O)cc2)s1 (centres unmarked) [Example 4] . Output its selectivity ratio only.
### Response 1990

### Prompt Retrieve selectivity ratio measured for COc1ccc(CCNCC(O)COc2ccccc2C=Cc2nnc(C)s2)cc1OC (centres unmarked) [Example 2] and print it.
### Response 3250
